The reported numbers originate from paper PMC4389572.

target-desc: C3G-based poly-Pro peptide ligand
assay-procedure: other fluorescence titration; fluorescence-based titration assay as described in Camarero et al., 2001b; conditions not given here
metric: Kd

{"columns": ["binder", "value"],
 "data": [
  ["SH3_(circ-Δ), backbone-cyclized N-terminal SH3 domain of c-Crk lacking Ala134 and Glu135 (Cys + residues 136-191) (domain or fragment, backbone cyclized: cyclo-[...], peptide bond between the N-terminal Cys and the C-terminal Gly191) CYVRALFDFNGNDEEDLPFKKGDILRIRDKPEEQWWNAEDSEGKRGMIPVPYVEKYG", "430 nM"],
  ["SH3_(lin-wt), linear N-terminal SH3 domain of c-Crk (residues 134-190 with an additional Gly191) (domain or fragment) AEYVRALFDFNGNDEEDLPFKKGDILRIRDKPEEQWWNAEDSEGKRGMIPVPYVEKYG", "870 nM"],
  ["SH3_(circ-wt), backbone-cyclized N-terminal SH3 domain of c-Crk (Cys-Gly + residues 134-191) (domain or fragment, backbone cyclized: cyclo-[...], peptide bond between the N-terminal Cys and the C-terminal Gly191) CGAEYVRALFDFNGNDEEDLPFKKGDILRIRDKPEEQWWNAEDSEGKRGMIPVPYVEKYG", "890 nM"],
  ["SH3_(circ-GΔ), backbone-cyclized N-terminal SH3 domain of c-Crk lacking Ala134 and Glu135 (Cys-Gly + residues 136-191) (domain or fragment, backbone cyclized: cyclo-[...], peptide bond between the N-terminal Cys and the C-terminal Gly191) CGYVRALFDFNGNDEEDLPFKKGDILRIRDKPEEQWWNAEDSEGKRGMIPVPYVEKYG", "470 nM"]
]}
